- System: MS2 coat protein
- TEST_SUMMARY: apparent KD of MS2 coat protein, switch OFF state (with FMN for OFF switches, without FMN for ON switches); designed switch direction (-1 OFF switch, 1 ON switch): -1; higher = weaker reporter binding
- MEASUREMENT_CONTEXT: FMN input: 0 or 200 uM; Eterna round: R93 (includes R88 designs)
Class Satisfied: apparent KD of MS2 coat protein at least 80 nM. Class Not satisfied: apparent KD of MS2 coat protein below 80 nM.

Prompt line: Does apparent KD of MS2 coat protein meet or surpass 80 nM for AGUUGGCGAGGAUAUACAUGAGGAUCACCCAUGUAAAAAAAAAAAAAAAAAACUUCAUGUAGAAGGCGCUGACA [Starry Exclusion 3.4 (biggestlegoheroicafanever round 1 mod)] ?
Response line: Not satisfied

Prompt line: Does apparent KD of MS2 coat protein meet or surpass 80 nM for ACUAGUACAGGAUAUACAUGAGGAUCACCCAUGUGAGAAUUAAGUGGCGUACCACAAAGUAGAAGGGUACUAGA [Mat - Exclusion 3 - JL mod - D14] ?
Response line: Satisfied

Prompt line: Does apparent KD of MS2 coat protein meet or surpass 80 nM for AGGAAACAUGAGGAUCACCCAUGUCAGGAUAUUGGAAAGAAAAGAAAAGAAAGAAGAAUAAGAAGGGACAAGAA [Hor-Aha] ?
Response line: Not satisfied

Prompt line: Does apparent KD of MS2 coat protein meet or surpass 80 nM for AAAAAGAGAGGAUAUACAUGAGGAUCACCCAUGUGAAAGACGAAAAAAAGUCAAAAAAGUAGAAGGCUCAAAAA [65%, Moding Exclusion3-cac2, 15] ?
Response line: Not satisfied

Prompt line: Does apparent KD of MS2 coat protein meet or surpass 80 nM for AAGGAGUGAGGAUAUACAUGAGGAUCACCCAUGUUGAUGGAAACGUCAGAGAAAGAAGGUAGAAGGCACAAGAA [JR_Exclusion3_Sub6] ?
Response line: Not satisfied

Prompt line: Does apparent KD of MS2 coat protein meet or surpass 80 nM for AAGAACACAGGAUAUACAUGAAAGAAAGAAAAGAAAAGAAAACAUGAGGAUCACCCAUGUAGAAGGGUGUAGAA [EteRNA is fun!] ?
Response line: Satisfied

Prompt line: Does apparent KD of MS2 coat protein meet or surpass 80 nM for CUCUUGUCAGGAUAUGUAAGAAAAGAAGAGAAAGAAAAGAAACAGAAGGGACAUGAGGAUCACCCAUGUAAGAA [EteRNA is fun!] ?
Response line: Not satisfied

Prompt line: Does apparent KD of MS2 coat protein meet or surpass 80 nM for AACUGACAUGAGGAUCACCCAUGUCAGGAUAUGACUUGAAAAAAAAAAAAAAAACAUGUCAGAAGGGACAUGGG [Design 55 :P Sub-opt HB] ?
Response line: Not satisfied

Prompt line: Does apparent KD of MS2 coat protein meet or surpass 80 nM for UGCAGGUGAGGAUAUGCGGGCGAUUAAACAUAUAAAUGCAAGCAGAAGGCACAUGAGGAUCACCCAUGUAGUCC [Ex4Try2_Neo] ?
Response line: Not satisfied

Prompt line: Does apparent KD of MS2 coat protein meet or surpass 80 nM for AAAGGACGAGGAUAUACAUGAGGAUCACCCAUGUGUAAAACGUAAUAAAAGAACUUAUGUAGAAGGCGUCCAAA [Mat - Exclusion 3 - Eli mod - D96] ?
Response line: Satisfied
